- ASSAYED TARGET: UniProt P18031
- METHOD DESCRIPTION: Triterpene inhibition of PTP1B405 (Table 2)
- Assay type: biochemical
Recorded measurements of Ki, one per entry
PROPERTY: Ki (µM)

# COMPOUND, PROPERTY, READING
measured = [
    ("CC1(C)CCC[C@](C)([C@H]2CC[C@]3(C)[C@@H]2[C@H](O)C[C@@H]2[C@@]4(C)CC[C@H](O)C(C)(C)[C@@H]4[C@H](O)C[C@]23C)O1", "Ki", 10),
    ("C[C@H]1CC[C@@]2(OC1)O[C@H]1C[C@H]3[C@@H]4CC=C5C[C@@H](O)CC[C@]5(C)[C@H]4CC[C@]3(C)[C@H]1[C@@H]2C", "Ki", 25),
    ("CC(C)[C@H]1CC[C@]2(C)[C@H]3CC[C@@H]4[C@@]5(C)CCCC(C)(C)[C@@H]5CC[C@@]4(C)[C@]3(C)CC[C@@H]12", "Ki", 5.7),
    ("CC/C=C/C(C)(O)OCC1(C)C(=O)CCC2(C)C1CCC1(C)C2CCC2C3C(C)C(C)CCC3(C)CCC21C (centres unmarked)", "Ki", 22),
    ("C=C(C)[C@@H]1CC[C@]2(CO)CC[C@]3(C)[C@H](CC[C@@H]4[C@@]5(C)CC[C@H](O)C(C)(C)[C@@H]5CC[C@]43C)[C@@H]12", "Ki", 2),
    ("CC1(C)C=C2[C@H]3CC[C@@H]4[C@@]5(C)CCC(=O)C(C)(C)[C@@H]5CC[C@@]4(C)[C@]3(C)CC[C@@]2(C(=O)O)CC1", "Ki", 5),
    ("COC[C@]12CC[C@@H](C)[C@H](C)[C@H]1[C@@]1(O)C=C[C@@H]3[C@@]4(C)CCC(=O)C(C)(C)[C@@H]4CC[C@@]3(C)[C@]1(C)CC2", "Ki", 15),
    ("C[C@H]1[C@H](C)CC[C@]2(C(=O)O)CC[C@]3(C)C(=CC[C@@H]4[C@@]5(C)C[C@@H](O)[C@H](O)C(C)(C)[C@@H]5CC[C@]43C)[C@H]12", "Ki", 1.5),
]

###

Recorded measurements of Ki, one per entry
- ASSAYED TARGET: PTP1B405 (Homo sapiens)
- METHOD DESCRIPTION: Triterpene inhibition of PTP1B405 (Table 2)
- Format: biochemical
PROPERTY: Ki (µM)

# COMPOUND, READING
rows = [
    ("C[C@H]1C(=O)CC[C@H]2[C@]1(C)CC[C@]13C[C@@]14CC[C@@]1(C)CCC(C)(C)C[C@]15C[C@]54CC[C@@]23C", 2),
    ("C=C(C)C1CC[C@]2(C(=O)O)CC[C@]3(C)[C@H](CC[C@@H]4[C@@]5(C)CC[C@H](O)C(C)(C)[C@@H]5CC[C@]43C)[C@@H]12 (stereo partly drawn)", 0.7),
    ("C=C(C)[C@@H]1CC[C@]2(C(=O)O)CC[C@]3(C)[C@H](CC[C@@H]4[C@@]5(C)CC[C@H](OC(=O)CC(C)(C)C(=O)O)C(C)(C)[C@@H]5CC[C@]43C)[C@@H]12", 4.4),
]
